# System: L1210 leukemia ip in BDF1 mice, survival T/C
# Measurement description: NCI In Vivo Anticancer Drug Screen. Data for tumor model L1210 Leukemia (intraperitoneal) in B6D2F1 (BDF1) mice
# Particulars: endpoint: mean survival time; dose: 100.0 mg/kg/injection; schedule: Q01DX009 (ip); vehicle: Klucel (hydroxypropylcellulose) (HPC); higher = longer survival
Inconclusive results and toxic doses are left out.
# key: entry, value: T/C

Examples from the recorded data:
O=C(C(=O)c1cc(Br)ccc1O)c1cc(Br)ccc1O
96 % of control
COc1cc([N+](=O)[O-])ccc1NC(=O)Oc1ccc(F)cc1Cl
94 % of control
CCOC(=O)c1ccc(N=NN(C)CC(C)C)cc1
112 % of control
CC(C)=CCN1CCN=C(c2ccccc2)c2cc(Cl)ccc21
105 % of control
CCc1ccccc1NC(=O)Nc1ccccc1
94 % of control

May I ask what T/C has been recorded for CC(C)(Br)C(=O)C(C)(C)Br ?
103 % of control

Now this one: c1ccc(CSSCc2ccccc2)cc1
100 % of control
